Numbers sourced from paper PMC12396409.

Test system: T. gondii RH strain (RH-Tub-eYFP) tachyzoites
Assay: microbe, parasite or virus in culture
Type: cell-based, Toxoplasma gondii
Conditions: library screen at 2 μg/mL, 72 h, % growth, replicate 2
measurement.type: Tg_72h_%Growth_Rep2 (%)
Record the value in %, omitting the unit from your answer.

{"molecule": "CC[C@H]1OC(=O)[C@H](C)[C@@H](O[C@H]2C[C@@](C)(OC)[C@@H](O)[C@H](C)O2)[C@H](C)[C@@H](O[C@@H]2O[C@H](C)C[C@H](N(C)C)[C@H]2O)[C@](C)(O)C[C@@H](C)C(=NO)[C@H](C)[C@@H](O)[C@]1(C)O", "target.entity": "T. gondii RH strain (RH-Tub-eYFP) tachyzoites", "endpoint.unit": "%", "Tg_72h_%Growth_Rep2": 49.55}
{"molecule": "CC[C@H](C)[C@H]1O[C@]2(C=C[C@@H]1C)C[C@@H]1C[C@@H](C/C=C(\\C)[C@@H](O[C@H]3C[C@H](OC)[C@@H](O[C@H]4C[C@H](OC)[C@H](O)[C@H](C)O4)[C@H](C)O3)[C@@H](C)C=C/C=C3\\CO[C@@H]4[C@H](O)C(C)C=C(C(=O)O1)[C@]34O)O2 (stereo partly drawn)", "target.entity": "T. gondii RH strain (RH-Tub-eYFP) tachyzoites", "endpoint.unit": "%", "Tg_72h_%Growth_Rep2": 35.45}
{"molecule": "C/C=C(\\C)C(=O)OC[C@H]1O[C@H](O[C@H]2O[C@H](COC(=O)/C(C)=C/C)[C@@H](O)[C@H](O)[C@H]2O[C@@H]2O[C@H](CO)[C@@H](OC(=O)/C(C)=C/C)[C@H](OC(=O)/C(C)=C/C)[C@H]2O)[C@H](O[C@@H]2O[C@H](CO)[C@@H](OC(=O)/C(C)=C/C)[C@H](OC(=O)/C(C)=C/C)[C@H]2O)[C@@H](O)[C@@H]1O [Actinotetraose Hexatiglate]", "target.entity": "T. gondii RH strain (RH-Tub-eYFP) tachyzoites", "endpoint.unit": "%", "Tg_72h_%Growth_Rep2": 100.02}

Using the record for CCCCCCCCCCCCCCCc1cc(O)cc(O)c1 , report its Tg_72h_%Growth_Rep2.
96.65

Using the record for CC[C@H](C)[C@H]1O[C@]2(C=C[C@@H]1C)C[C@@H]1C[C@@H](C/C=C(\C)[C@@H](O[C@H]3C[C@H](OC)[C@@H](O)[C@H](C)O3)[C@@H](C)/C=C/C=C3\CO[C@@H]4[C@H](O)C(C)=C[C@@H](C(=O)O1)[C@]34O)O2 [Avermectin B1a monosaccharide] , report its Tg_72h_%Growth_Rep2.
93.98

Using the record for C=CCNC1=C2C[C@@H](C)C[C@H](OC)[C@H](O)[C@@H](C)/C=C(\C)[C@H](OC(N)=O)[C@@H](OC)/C=C\C=C(/C)C(=O)NC(=CC1=O)C2=O , report its Tg_72h_%Growth_Rep2.
-0.21

Using the record for CO[C@H]1C[C@H](O[C@H]2[C@H](C)O[C@@H](O[C@@H]3/C(C)=C/C[C@@H]4C[C@@H](C[C@]5(C=C[C@H](C)[C@@H](C6CCCCC6)O5)O4)OC(=O)[C@H]4C=C(C)[C@@H](O)[C@H]5OC/C(=C\C=C\[C@@H]3C)[C@@]45O)C[C@@H]2OC)O[C@@H](C)[C@@H]1O [Doramectin, epi-] , report its Tg_72h_%Growth_Rep2.
83.42

Using the record for CC[C@H]1CCC[C@H](O)[C@@H](C)C(=O)C2=C[C@H]3[C@@H]4C[C@H](O)C[C@H]4CC[C@H]3[C@@H]2CC(=O)O1 [Dihydrospinosyn A aglycone] , report its Tg_72h_%Growth_Rep2.
82.63

Using the record for Cc1c2c(c(O)c3c(O)ccc(Cl)c13)C(=O)C1(O)C(O)=C(C(N)=O)C(=O)C(N(C)C)C1C2.Cl (stereo not drawn) , report its Tg_72h_%Growth_Rep2.
96.29

* * *

System: P. falciparum 3D7 parasites
Experiment: P. falciparum growth inhibition assay, 2-cycle (120 h treatment), delayed-death screen and dose-response
Assay type: cell-based, Plasmodium falciparum
Details: library screen at 2 μg/mL, 120 h, % growth, replicate 2
measurement.type: Pf_120h_%Growth_Rep2 (%)
Record the value in %, omitting the unit from your answer.

Past entries and their recorded results:
{"compound": "CC(C)CCC[C@@H](C)[C@@H]1CC[C@]2(C)C3=C(CC[C@@]12C)[C@@]1(C)CC[C@H](O)C(C)(C)[C@@H]1CC3 [Dihydroeuphol]", "test.result": 96.98}
{"compound": "CN1C(=O)c2ccccc2-n2c(nc3ccccc3c2=O)/C1=C\\c1ccccc1", "test.result": 61.47}
{"compound": "COC(=O)[C@@]12C(=O)C(C)C(=O)[C@]1(C)C(C)=C[C@H]1[C@]3(C=O)CC[C@H](OC(C)=O)C(C)(C)[C@H]3CC[C@@]12C (stereo partly drawn)", "test.result": 82.36}
{"compound": "CO[C@@H]1[C@@H](OC(N)=O)[C@@H](O)[C@H](Oc2ccc3c(O)c(NC(=O)c4ccc(O)c(CCC(C)C)c4)c(=O)oc3c2C)OC1(C)C [Dihydronovobiocin]", "test.result": 91.59}

Using the record for CC[C@H]1OC(=O)[C@H](C)[C@@H](O[C@H]2C[C@@](C)(OC)[C@@H](O)[C@H](C)O2)[C@H](C)[C@@H](O[C@@H]2O[C@H](C)C[C@H]([N+](C)(C)[O-])[C@H]2O)[C@](C)(O)C[C@@H](C)C(=O)[C@H](C)[C@@H](O)[C@]1(C)O [Erythromycin A N-oxide] , report its Pf_120h_%Growth_Rep2.
80.30

Using the record for CCCCCCCCCCCCCCCc1cc(O)cc(O)c1 , report its Pf_120h_%Growth_Rep2.
100.82

* * *

Test system: P. falciparum 3D7 parasites
Assay: P. falciparum growth inhibition assay, 2-cycle (120 h treatment), delayed-death screen and dose-response
Type: cell-based, Plasmodium falciparum
Conditions: P. falciparum, 120 h, parasite screen 2 μg/mL, % growth, replicate 2
measurement.type: Pf_120h_%Growth_Rep2

{"compound": "CCO[C@@H]1[C@@H](OC)[C@H](C)O[C@@H](O[C@@H]2C[C@H]3CC[C@@H]4[C@@H](C=C5C(=O)[C@H](C)[C@@H](O[C@H]6CC[C@H](N(C)C)[C@@H](C)O6)CCC[C@H](CC)OC(=O)C[C@H]54)[C@@H]3C2)[C@@H]1OC [spinosyn J, 3'-Ethoxy-5,6-dihydro-]", "Pf_120h_%Growth_Rep2": "9.72%"}
{"compound": "CS[C@H]1SC[C@H]2C(=O)N(C)[C@@H](C(C)C)C(=O)OC[C@@H](NC(=O)c3cnc4ccccc4n3)C(=O)N[C@@H](C)C(=O)N(C)[C@@H]1C(=O)N(C)[C@@H](C(C)C)C(=O)OC[C@@H](NC(=O)c1cnc3ccccc3n1)C(=O)N[C@@H](C)C(=O)N2C [Quinomycin A]", "Pf_120h_%Growth_Rep2": "-11.60%"}

For P. falciparum 3D7 parasites, provide Pf_120h_%Growth_Rep2 of Cc1cc(O)c2c3c1C(=O)C=C1C(C)(C)C(=O)c4c(O)cc(O)c(c4C13O)C2=O (stereo not drawn) [Resistoflavine] please.
93.07%

* * *

Test system: T. gondii RH strain (RH-Tub-eYFP) tachyzoites
Test: microbe, parasite or virus in culture
Assay type: cell-based, Toxoplasma gondii
Conditions: Toxoplasma gondii, 72 h, T. gondii, 72 h, screen at 2 μg/mL, replicate 1; read-out: Tg_72h_%Growth_Rep1
measurement.type: percent parasite growth at 2 µg/mL (%)
Record the value in %, omitting the unit from your answer.

Past entries and their recorded results:
{"substance.smiles": "CC[C@H](C)C(=O)[C@@H](C)C1=CC(=O)C2=C(O[C@]3(C)CC[C@H]4O[C@@H](C(C)(C)O)CC[C@]4(C)[C@H]3C2)C1=O", "percent parasite growth at 2 µg/mL / %": 110}
{"substance.smiles": "C=C1[C@@H](C)[C@H]2[C@H](Cc3ccccc3)NC(=O)[C@]23OC(=O)/C=C/[C@H](O)CCC[C@@H](C)C/C=C/[C@H]3[C@@H]1O", "percent parasite growth at 2 µg/mL / %": 31.3}

Would you kindly look at the next entry?
Using the record for COC(=O)/C(=C1/OC(=O)C(c2ccccc2)=C1O)c1ccccc1 , report its percent parasite growth at 2 µg/mL.
109

* * *

Pf_120h_%Growth_Rep1 reference
Tested on: P. falciparum 3D7 parasites
Assay: P. falciparum growth inhibition assay, 2-cycle (120 h treatment), delayed-death screen and dose-response
Format: cell-based, Plasmodium falciparum
Settings: P. falciparum 3D7, 120 h, library screen at 2 μg/mL, % growth, replicate 1

Past entries and their recorded results:
{"compound": "CC(=O)OC1CCC2(C)C(CCC3C2CC(=O)C2(C)C3CC3OC4(CCC(C)CO4)C(C)C32)C1 (stereo not drawn)", "target.entity": "P. falciparum 3D7 parasites", "measurement.type": "Pf_120h_%Growth_Rep1", "test.result": "85.47%"}
{"compound": "COC1C=CC=C(C)C(=O)NC2=CC(=O)C=C(C2=O)C(OC)C(C)CC(OC)C(OC)C(C)C=C(C)C1OC(N)=O (stereo not drawn)", "target.entity": "P. falciparum 3D7 parasites", "measurement.type": "Pf_120h_%Growth_Rep1", "test.result": "68.16%"}

Would you kindly look at the next entry?
Using the record for C=C(C)[C@@H]1CC[C@]2(C)CC[C@]3(C)[C@H](CC[C@@H]4[C@@]5(C)CC[C@H](O)C(C)(C)[C@@H]5CC[C@]43C)[C@@H]12 , report its Pf_120h_%Growth_Rep1.
99.08%
